System: 233499-124-R-J3-PDC complex spheroid growth;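 note: spheroids exposed to agents for seven days before reading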
Test: Anticancer human tumor 233499-124-R-J3-PDC patient-derived colon adenocarcinoma cell line growth inhibition [AhR]
Details: second compound 0.316 µM; first compound 10 µM; stronger effect = lower value
Listed compounds paired with reported viability, T/C
The reply should be a number in %, with the unit left off.

* Nc1ccn(C2OC(CO)C(O)C2(F)F)c(=O)n1 (centres undefined) + Cc1ccccc1N=Nc1ccc(NC(=O)c2ccnn2C)c(C)c1 | 57
* Nc1ccn(C2OC(CO)C(O)C2(F)F)c(=O)n1 (centres undefined) + Cc1cncc(-c2nc(NCCc3c[nH]c4ccccc34)c3ncn(C(C)C)c3n2)c1 | 45.9
* Nc1ccccc1NC(=O)c1ccc(CNC(=O)OCc2cccnc2)cc1 + Cc1ccccc1N=Nc1ccc(NC(=O)c2ccnn2C)c(C)c1 | 7.54
* CC1COCCN1c1cc(C2(S(C)(=N)=O)CC2)nc(-c2ccnc3[nH]ccc23)n1 (centres undefined) + CC(CO)NC(=O)c1cc(-c2ccc(Cl)cc2)nn(-c2cnn(C)c2)c1=O | 72.1
* COc1cc(Nc2ncc3c(n2)-c2ccc(Cl)cc2C(c2c(F)cccc2OC)=NC3)ccc1C(=O)O + Cc1cncc(-c2nc(NCCc3c[nH]c4ccccc34)c3ncn(C(C)C)c3n2)c1 | 82.5
* O=C(C=Cc1cccc(S(=O)(=O)Nc2ccccc2)c1)NO + Cc1cncc(-c2nc(NCCc3c[nH]c4ccccc34)c3ncn(C(C)C)c3n2)c1 | 5.83
* O=C(c1cc(Cc2n[nH]c(=O)c3ccccc23)ccc1F)N1CCN(C(=O)C2CC2)CC1 + CC(CO)NC(=O)c1cc(-c2ccc(Cl)cc2)nn(-c2cnn(C)c2)c1=O | 104
* COc1ccc([C@@H](O)c2cc(-c3ncnc4cc(N5CCOCC5)ccc34)c(F)cc2Cl)nn1 + CC(CO)NC(=O)c1cc(-c2ccc(Cl)cc2)nn(-c2cnn(C)c2)c1=O | 75.3

## Input Return reported viability, T/C; argument: CC1COCCN1c1cc(C2(S(C)(=N)=O)CC2)nc(-c2ccnc3[nH]ccc23)n1 (centres undefined) + Cc1cncc(-c2nc(NCCc3c[nH]c4ccccc34)c3ncn(C(C)C)c3n2)c1
## Output 78.1

## Input Consider next the compound Nc1ccn(C2OC(CO)C(O)C2(F)F)c(=O)n1 (centres undefined) + CC(CO)NC(=O)c1cc(-c2ccc(Cl)cc2)nn(-c2cnn(C)c2)c1=O in the same way.
## Output 35.9
